Entries annotated with measured Kd
# target.or.system: T1, human IL-18BP (Homo sapiens, UniProt O95998)
# T1 construct: His
# T1 sequence (O95998 31-194): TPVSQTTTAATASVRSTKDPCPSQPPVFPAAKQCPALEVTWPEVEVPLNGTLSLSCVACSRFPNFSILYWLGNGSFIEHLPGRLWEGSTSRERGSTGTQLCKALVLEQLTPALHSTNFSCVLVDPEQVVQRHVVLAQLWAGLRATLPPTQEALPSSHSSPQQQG
# test.protocol: IL-18BP binding alphaLISA assay (Example 4, used in Example 22B)
# measurement.context: IL-18BP AlphaLISA

molecule	Kd
C165: IL-18 polypeptide: V11I, C38A, S55R, C76A, C127A (protein) YFGKLESKLSIIRNLNDQVLFIDQGNRPLFEDMTDSDARDNAPRTIFIISMYKDRQPRGMAVTISVKCEKISTLSAENKIISFKEMNPPDNIKDTKSDIIFFQRSVPGHDNKMQFESSSYEGYFLAAEKERDLFKLILKKEDELGDRSIMFTVQNED	0.15 nM
48 (protein) YFGKLESKLSVIRNLNDQVLFIDQGNRPLFEDMTDSDSRDNAPRTIFIISMYKDSQPRGMAVTISVKSECISTLSSENKIISFKEMNPPDNIKDTKSDIIFFQRSVPGHDNKMQFESSSYEGYFLASEKERDLFKLILKKEDELGDRSIMFTVQNED	0.21 nM
C160: IL-18 polypeptide: V11I, C38A, K53A, C76A, D110A, C127A (protein) YFGKLESKLSIIRNLNDQVLFIDQGNRPLFEDMTDSDARDNAPRTIFIISMYADSQPRGMAVTISVKCEKISTLSAENKIISFKEMNPPDNIKDTKSDIIFFQRSVPGHANKMQFESSSYEGYFLAAEKERDLFKLILKKEDELGDRSIMFTVQNED	0.71 nM
49 (protein) YFGKLKSKLSVIRNLNDQVLFIDQGNRPLFEDMTDSDSRDNAPRTIFIISMYADAQPRGMAVTISVKSECISTLSSENKIISFKEMNPPDNIKDTKSDIIFFQRSVPGHDNKMQFESSSYEGYFLASEKERDLFKLILKKEDELGDRSIMFTVQNED	> 1000 nM
C143: IL-18 polypeptide: V11I, C38A, K53A, C76A, C127A (protein) YFGKLESKLSIIRNLNDQVLFIDQGNRPLFEDMTDSDARDNAPRTIFIISMYADSQPRGMAVTISVKCEKISTLSAENKIISFKEMNPPDNIKDTKSDIIFFQRSVPGHDNKMQFESSSYEGYFLAAEKERDLFKLILKKEDELGDRSIMFTVQNED	8.86 nM
55 (protein) YFGKLESKLSVIRNLNDQVLFIDQGNRPLFEDMTDSDSRDNAPRTIFIISMYADSQPRGMAVAISVKSECISTLSSENKIISFKEMNPPDNIKDTKSDIIFFQRSVPGHDNKMQFESSSYEGYFLASEKERDLFKLILKKEDELGDRSIMFTVQNED	913 nM
